Target: T1, human BCMA (human, UniProt Q02223 1-184)
T1 construct: whole, on cells; the cell line is named under assay; also called TNFRSF17; CD269
T1 sequence (looked up): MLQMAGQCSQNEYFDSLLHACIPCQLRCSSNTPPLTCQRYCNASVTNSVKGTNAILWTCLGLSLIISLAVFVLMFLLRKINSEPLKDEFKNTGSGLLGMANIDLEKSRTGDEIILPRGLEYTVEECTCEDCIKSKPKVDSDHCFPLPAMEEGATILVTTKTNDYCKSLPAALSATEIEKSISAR
Experiment: flow cytometry, HEK293T/hBCMA cells
pEC50: −log10 of the molar value.
Property: pEC50

>>> measured_number("PR001046, anti-BCMA HCAb antibody, clone 1005P63B7 (antibody, human IgG1, V domains shown, Heavy-chain-only antibody (HCAb), human IgG1 Fc, no light chain) VH: EVQLVETGGGLIQPGGSLRLSCAASGFTVSDNYMTWVRQAPGKGLEWVSVIFSGGNTYYADSVKGRFTISRDNAKNTLYLQMNSLRAEDTALYYCARRNYDDTRGTDVFDIWGQGTMVTVSS")
9.67
>>> measured_number("PR000943, anti-BCMA HCAb antibody, clone 1005P16A10 (antibody, human IgG1, V domains shown, Heavy-chain-only antibody (HCAb), human IgG1 Fc, no light chain) VH: EVQLVETGGGLIQPGGSLRLSCAASGFPVSSNYMSWVRQAPGKGLEWVSVIFSGGRTYYADSVKGRFTISRDNSKNTLYLQMNSLRAEDTAVYYCARRNWIDGRDAFDIWGQGTMVTVSS")
9.81
>>> measured_number("PR001035, anti-BCMA HCAb antibody, clone 1005P36F3 (antibody, human IgG1, V domains shown, Heavy-chain-only antibody (HCAb), human IgG1 Fc, no light chain) VH: EVQLVETGGGLIQPGGSLRLSCAASGFTVSSNYMTWVRQAPGKGLEWVSVIFSGGSTYYADSVKGRFTISRDNSKNTLYLQMNSLRAEDTAVYYCARRIAVAGHDVFDIWGQGTMVTVSS")
9.47
>>> measured_number("PR000274, anti-BCMA monoclonal antibody CA8-J6M0 (antibody, human IgG1, kappa, V domains shown, Control antibody; also called Positive control 1; CA8-J6M0 hIgG1) VH: QVQLVQSGAEVKKPGSSVKVSCKASGGTFSNYWMHWVRQAPGQGLEWMGATYRGHSDTYYNQKFKGRVTITADKSTSTAYMELSSLRSEDTAVYYCARGAIYDGYDVLDNWGQGTLVTVSS VL: DIQMTQSPSSLSASVGDRVTITCSASQDISNYLNWYQQKPGKAPKLLIYYTSNLHSGVPSRFSGSGSGTDFTLTISSLQPEDFATYYCQQYRKLPWTFGQGTKLEIKR")
8.39

These data points were gathered from patent US20230322953A1.
